System: NCI-H460 lung
assay-method-text: NCI tumour cell line growth inhibition, 48 h
recorded-endpoint: TGI

COc1ccc2sc(-n3nc4ccccc4c3Nc3nc4ccc(OC)cc4s3)nc2c1 = > 38.9 µM
CC(=O)OC(CCC1(C)OC1COc1ccc(CCNC(=O)c2ccccc2)cc1)C(C)(C)OC(C)=O (stereo not drawn) = 36.7 µM

Query: I have this compound here, `COc1cc(O)c(C(=O)/C=C/c2ccc(O)cc2)c(O)c1[C@@H]1C[C@H](CCc2ccc(O)cc2)O[C@H](c2ccc(O)cc2)C1` , and I need its recorded TGI.
Response: 7.87 µM

Query: // same read-out, input: `COc1cc2c3c(n(CCCI)c(=O)c2cc1OC)-c1cc2c(cc1C3=O)OCO2`
Response: > 100 µM

Query: // same read-out, input: `Nc1nc(Cl)cc(NCCC2(CO)CCC2)n1`
Response: > 100 µM

Query: // same read-out, input: O=C(CC1(O)C(=O)Nc2c(Cl)cc(Cl)cc21)c1cccc2ccccc12 (stereo not drawn)
Response: 31.1 µM

Query: // same read-out, input: `C/C(=C/C(=O)Nn1c(Cc2ccccc2)n[nH]c1=O)C(=O)O`
Response: > 100 µM

Query: // same read-out, input: `Brc1ccc2c([C@H]3CN[C@@H](c4c[nH]c5cc(Br)ccc45)CN3)c[nH]c2c1`
Response: 4.15 µM

Query: // same read-out, input: `COc1ccc2c(c1)C(=O)c1c-2c(Nc2ccc(Cl)cc2)nc2ccccc12`
Response: > 100 µM

* * *

System: COLO 205 colon
assay-method-text: NCI tumour cell line growth inhibition, 48 h; in the data active = GI50 below about 0.43 µM; inactive = the rest
Valid outcomes are listed here; reply with one: 1 (yes) = active, 0 (no) = inactive

Use these answered entries as a reference point.
CC(C)CCN=C(N)c1ccc(N2CCN(c3ccc(C(N)=NCCC(C)C)cc3)CC2)cc1 = 0 (no)
CN1c2ccccc2C(C)(C)C12C=Cc1cc(O)ccc1O2 (stereo not drawn) = 0 (no)

Query: Would you mind telling me which call this test gave `O=C(/C=C/c1cc([N+](=O)[O-])ccc1Cl)c1ccccc1` ?
Response: 0 (no)

Query: // same read-out, input: `N#Cc1c(N)nc(N2CCOCC2)c(C#N)c1-c1cccnc1`
Response: 0 (no)

Query: // same read-out, input: `COc1ccc(Nc2c3ccccc3nc3ccccc23)cc1`
Response: 0 (no)

Query: // same read-out, input: `COc1ccc2c(c1)C(=O)c1c-2c(Nc2ccc(Cl)cc2)nc2ccccc12`
Response: 0 (no)

Query: // same read-out, input: C=C1CCC2C(C)(C)CCC[C@]2(C)[C@H]1CO (stereo partly drawn)
Response: 0 (no)

Query: // same read-out, input: `COc1ccc(-c2nc3ccccn3c2/C=C/C(=O)c2cc(OC)c(OC)c(OC)c2)cc1`
Response: 0 (no)

Query: // same read-out, input: `COc1cc2c(cc1C)NC(=O)/C2=C\c1cccc(Oc2ccccc2)c1`
Response: 0 (no)

Query: // same read-out, input: `CCNC(=O)c1cc2c(-c3cc(C(C)(C)O)ccc3Oc3c(C)cc(F)cc3C)cn(C)c(=O)c2[nH]1`
Response: 0 (no)

Query: // same read-out, input: `Fc1ccc(Nc2nc3nonc3nc2Nc2ccc(F)cc2)cc1`
Response: 1 (yes)

Query: // same read-out, input: `COc1ccc(Cn2cc3c(c2-c2ccc(OC)cc2)CCc2cnoc2-3)cc1`
Response: 1 (yes)

Query: // same read-out, input: `COc1cc(Nc2ccnc(NCCCNc3ccnc4cc(Cl)ccc34)n2)cc(OC)c1`
Response: 0 (no)

* * *

System: HOP-92 NSCLC
assay-method-text: NCI tumour cell line growth inhibition, 48 h
Below, each of the molecules is paired with its reported GI50 value.

CN1CCN(c2ccc3nc(-c4ccc5nc(-c6ccc(OCCC(C)(C)C)cc6)[nH]c5c4)[nH]c3c2)CC1 = 14.3 µM
C=C1CCC2C(C)(C)CCC[C@]2(C)[C@H]1CO (stereo not given in full) = 74.9 µM
COc1cc(/C=C/C(=O)c2ccc(NC(=O)CN3CCN(c4cc5c(cc4F)c(=O)c(C(=O)O)cn5C4CC4)CC3)cc2)cc(OC)c1OC = 1.79 µM
COc1ccc2c(c1)C(=O)c1c-2c(Nc2ccc(Cl)cc2)nc2ccccc12 = 11.5 µM

Could you now look at the following molecule, please?
Query: I have this molecule here, `CN(CC(=O)N(Cc1ccc(C2CCCCC2)cc1)c1ccc(C(=O)O)c(O)c1)S(=O)(=O)c1c(F)c(F)c(F)c(F)c1F` , and I need its recorded GI50.
Response: 1.95 µM

* * *

System: SNB-75 CNS
assay-method-text: NCI tumour cell line growth inhibition, 48 h
recorded-endpoint: TGI

Worked examples, 6 molecules total:
C=C1CC/C=C(\C)C(=O)C[C@@H]2[C@@H]1CC2(C)C = 26.3 µM
CSc1ccc(NC(=S)NN(C)C)cc1 = > 10 µM
CS(=O)(=O)N(N(CCCl)S(=O)(=O)c1ccccc1)S(C)(=O)=O = > 100 µM
COC(=O)C1CCC(=O)N1C(c1ccc(OC)cc1)c1ccc(OC)cc1 (configuration not stated) = > 100 µM
CCOC(=O)C1=C(C)N(c2ccc(C)cc2)C2=C(C(=O)N(c3ccccc3)C2c2ccccc2)C1c1ccccc1 (configuration not stated) = > 25 µM
c1csc(-c2cc(-c3cccs3)c(-c3cccs3)s2)c1 = > 100 µM

Query: Write down the reported TGI of `O=C(NCc1ccc(Cn2c(=O)sn(-c3ccccc3)c2=O)cc1)OCc1ccc2c(Br)cc(Br)c(O)c2n1` , test system: SNB-75 CNS.
Response: 1.97 µM

Query: // same read-out, input: `CC(=O)N(O)[C@@H]1CC[C@H](n2cnc3c(N)ncnc32)C1`
Response: > 100 µM

Query: // same read-out, input: O=C1C2C3C=CC(C2C(=O)N1COP(=O)(O)O)C1C2C(=O)N(COP(=O)(O)O)C(=O)C2C31 (configuration not stated)
Response: > 100 µM

* * *

Test system: RXF 393 renal
assay-method-text: NCI tumour cell line growth inhibition, 48 h
recorded-endpoint: TGI

Query: Write down the reported TGI of `O=C(NP(=O)(N1CC1)N1CC1)c1cc(I)ccc1I` , test system: RXF 393 renal.
Response: > 87.8 µM

Query: // same read-out, input: `c1csc(-c2cc(-c3cccs3)c(-c3cccs3)s2)c1`
Response: > 100 µM

Query: // same read-out, input: Fc1ccc2nc3n(c2c1)C(c1c(Cl)cccc1Cl)SC3 (centres undefined)
Response: > 100 µM

Query: // same read-out, input: CC1(CCCO)CCCCCCCCCC(C)(CCCO)C1=O (centres undefined)
Response: > 100 µM

* * *

Below, each of the molecules is paired with its reported TGI value.
Tested on: BT-549 breast
assay-method-text: NCI tumour cell line growth inhibition, 48 h

Worked examples, 3 molecules total:
CCOc1ccc(/C=N/[N+](C)(C)C)cc1OCC = > 10 µM
CC(C)(C)c1cc(C2=NN(c3ccccc3)C(c3ccccc3)C2)cc(C(C)(C)C)c1O (centres undefined) = > 100 µM
Nc1nc(Cl)cc(NCCC2(CO)CCC2)n1 = > 100 µM

Could you now look at the following molecule, please?
Query: I have this molecule here, `Cc1cc(Cl)ccc1NC(=O)c1cc2ccccc2cc1O` , and I need its recorded TGI.
Response: > 100 µM

* * *

System: SN12C renal
assay-method-text: NCI tumour cell line growth inhibition, 48 h
Below, each of the molecules is paired with its reported GI50 value.

COc1cc(Nc2ccnc(NCCCNc3ccnc4cc(Cl)ccc34)n2)cc(OC)c1 = 2000 nM

Query: I have this molecule here, `Cc1cccc2c(=O)c3c(sc12)c(NCCNCCO)nc1ccccc13` , and I need its recorded GI50.
Response: 1540 nM

Query: // same read-out, input: `NC(=O)c1cc(-c2ccc(F)cc2)cc(-c2ccncc2)c1N`
Response: > 25000 nM

Query: // same read-out, input: CC[C@@H](C(=O)[C@@H](C)[C@@H](O)[C@H](C)[C@@H]1O[C@@H]([C@@H](CC)C(=O)N(CC)CC)CC[C@@H]1C)C1O[C@]2(C=CC(=O)[C@]3(CC[C@@](C)([C@H]4CC[C@](O)(CC)[C@H](C)O4)O3)O2)[C@H](C)C[C@@H]1C (some centres undefined)
Response: 2410 nM

* * *

Test system: T-47D breast
assay-method-text: NCI tumour cell line growth inhibition, 48 h
recorded-endpoint: TGI

Worked examples, 5 compounds total:
CCCCCCCCCCCCCC[S+](C)C = > 10 µM
CN(C)c1ccccc1CN1CCCN(Cc2ccccc2N(C)C)C1c1ccncc1 = 38.7 µM
CCOc1ccc(/C=N/[N+](C)(C)C)cc1OCC = > 10 µM
CO/N=C(\C)COc1ccc2c(=O)c(-c3ccccc3)coc2c1 = 48.6 µM
Oc1[nH]c2ccc(Cl)cc2c1/C=c1/ccc2c(c1)N=C(c1ccc(F)cc1)N=2 = 6.17 µM

Query: I have this compound here, `O=C1/C(=C/c2ccccc2O)N=C(c2ccccc2)N1c1nc2ccccc2s1` , and I need its recorded TGI.
Response: > 100 µM

Query: // same read-out, input: `O=C1[C@@H]2[C@@H](c3ccccc3)[C@]2(Cl)C(=O)[C@H]2[C@H](c3ccccc3)[C@@]12Cl`
Response: > 100 µM

Query: // same read-out, input: `Cc1c(COc2cc(OCc3cccc(C#N)c3)c(CN3C[C@H](O)C[C@@H]3C(=O)O)cc2Cl)cccc1-c1ccc2c(c1)OCCO2`
Response: 47 µM

Query: // same read-out, input: `COc1ccc2c(c1)C(=O)c1c-2c(Nc2ccc(Cl)cc2)nc2ccccc12`
Response: > 100 µM

Query: // same read-out, input: `CCn1cc(C(=O)O)c(=O)c2cc3c(cc21)S(=O)(=O)CC3`
Response: > 100 µM
